Origin of values: paper PMC3627579

Molecular target: T1, TRBP-D12 (Homo sapiens, UniProt Q15633 19-228)
T1 sequence: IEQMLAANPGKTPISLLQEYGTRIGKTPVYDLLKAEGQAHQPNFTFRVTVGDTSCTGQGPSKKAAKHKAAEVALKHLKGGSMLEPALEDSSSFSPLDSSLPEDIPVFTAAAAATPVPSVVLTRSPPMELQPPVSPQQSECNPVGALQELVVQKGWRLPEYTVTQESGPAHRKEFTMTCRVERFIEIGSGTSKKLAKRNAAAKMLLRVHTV
Test: ITC
pKd: −log10 of the molar value.

{"columns": ["Binder", "pKd"],
 "data": [
  ["pre-miR-155 (structured_RNA) RNA: GGAAUGCUAAUCGUGAUAGGGGUUUUUGCCUCCAACUGACUCCUACAUAUUAGCAUUCCCA", 6.30]
]}
